Recorded IC50 values for a group of compounds are listed next.
# System: 945468-187-T-J3-PDC spheroids with HUVEC/MSC, viability;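 note: spheroids exposed to agents for 7 days before viability read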
# protocol-description: Anticancer human tumor 945468-187-T-J3-PDC patient-derived rectal carcinoma cell line growth inhibition [PI3K]
# applied-conditions: curve of first compound; second compound 1 µM
# Text: Combinatorial screen of targeted agents with the PI3K inhibitors inavolisib, alpelisib, duvelisib, and copanlisib in multi-cell type tumor spheroids A high-throughput screen of multi-cell type tumor spheroids was designed to identify active combinations of targeted small molecules and PI3K pathway inhibitors. […] Compounds. […] If the clinical Cmax for an agent had not been determined, the highest concentration tested was 10 microM. […]

| compound | IC50 |
| --- | --- |
| C=CC(=O)N1CCN(c2nc(=O)n(-c3c(C)ccnc3C(C)C)c3nc(-c4c(O)cccc4F)c(F)cc23)C(C)C1 (stereo unspecified) + COc1c(OCCCN2CCOCC2)ccc2c3n(c(=NC(=O)c4cnc(N)nc4)nc12)CCN3 | < 0.0316 µM |

Quick one: give measured IC50 for CC(C)NCC(C(=O)N1CCN(c2ncnc3c2C(C)CC3O)CC1)c1ccc(Cl)cc1 (stereo unspecified) + CC(Nc1ncnc2nc[nH]c12)c1cc2cccc(Cl)c2c(=O)n1-c1ccccc1
8.31 µM

Quick one: give measured IC50 for C=CC(=O)N1CCN(c2nc(=O)n(-c3c(C)ccnc3C(C)C)c3nc(-c4c(O)cccc4F)c(F)cc23)C(C)C1 (stereo unspecified) + CC(Nc1ncnc2nc[nH]c12)c1cc2cccc(Cl)c2c(=O)n1-c1ccccc1
> 10 µM

Quick one: give measured IC50 for Cn1ncnc1[C@H]1c2n[nH]c(=O)c3cc(F)cc(c23)N[C@@H]1c1ccc(F)cc1 + COc1c(OCCCN2CCOCC2)ccc2c3n(c(=NC(=O)c4cnc(N)nc4)nc12)CCN3
< 0.000316 µM

Quick one: give measured IC50 for CCN1CCN(Cc2ccc(Nc3ncc(F)c(-c4cc(F)c5nc(C)n(C(C)C)c5c4)n3)nc2)CC1 + COc1c(OCCCN2CCOCC2)ccc2c3n(c(=NC(=O)c4cnc(N)nc4)nc12)CCN3
< 0.00316 µM

Quick one: give measured IC50 for Cn1nccc1Nc1nccc(-c2ccn(C(CO)c3ccc(Cl)c(F)c3)c(=O)c2)n1 (stereo unspecified) + COc1c(OCCCN2CCOCC2)ccc2c3n(c(=NC(=O)c4cnc(N)nc4)nc12)CCN3
< 0.0316 µM

Quick one: give measured IC50 for Cn1cnc2c(F)c(Nc3ccc(Br)cc3Cl)c(C(=O)NOCCO)cc21 + CC(Nc1ncnc2nc[nH]c12)c1cc2cccc(Cl)c2c(=O)n1-c1ccccc1
> 3 µM

Quick one: give measured IC50 for Cn1nccc1Nc1nccc(-c2ccn(C(CO)c3ccc(Cl)c(F)c3)c(=O)c2)n1 (stereo unspecified) + Cc1nc(NC(=O)N2CCCC2C(N)=O)sc1-c1ccnc(C(C)(C)C(F)(F)F)c1
> 10 µM

Quick one: give measured IC50 for Cn1cnc2c(F)c(Nc3ccc(Br)cc3Cl)c(C(=O)NOCCO)cc21 + Cc1nc(NC(=O)N2CCCC2C(N)=O)sc1-c1ccnc(C(C)(C)C(F)(F)F)c1
1.18 µM

Quick one: give measured IC50 for CC1(C)CCC(Nc2ncc(C(F)(F)F)c(-c3c[nH]c4c(P(C)(C)=O)c(C#N)ccc34)n2)CN1 (stereo unspecified) + Cc1nc(NC(=O)N2CCCC2C(N)=O)sc1-c1ccnc(C(C)(C)C(F)(F)F)c1
4.44 µM

Quick one: give measured IC50 for Cn1ncc(Cl)c1-c1cc(C(=O)NC(CN)Cc2cccc(F)c2)sc1Cl (stereo unspecified) + CC(Nc1ccc2c(c1)OCCn1cc(N3C(=O)OCC3C(F)F)nc1-2)C(N)=O
0.193 µM
